- System: HT-29
- measurement-notes: NCI tumour cell line growth inhibition, 48 h
Active and inactive are the calls of the source. Rule as the data show it: active = GI50 up to about 1.1 µM and inactive = higher.
Hi! Could you answer with just one of these? True for active, False for inactive

Problem: I would be grateful if you could indicate the recorded call for CCOC(=O)c1cc2c([nH]1)C(=O)CC1=C2CCN1Cc1ccccc1 .
Solution: False

Problem: Next entry: CCC1(N=[N+]=[N-])C(=O)c2ccccc2N(c2ccccc2)C1=O (centres undefined)
Solution: False

Problem: Next entry: Oc1ccccc1/C=N/c1ccccc1/N=C/c1ccccc1O
Solution: False

Problem: Next entry: N=c1[nH]cnc2c1nnn2C1C=CC(COS(N)(=O)=O)C1 (centres undefined)
Solution: False

Problem: Next entry: O=C(c1cccc2cc(O)ccc12)c1cn(CCN2CCOCC2)c2ccccc12
Solution: False

Problem: Next entry: COc1cc(/C=N/N=C(\N)NO)c([N+](=O)[O-])cc1OC
Solution: False

Problem: Next entry: CCOC(=O)C1=C(N)N2C(=N[C@H]3CCCC[C@@H]32)N=C1
Solution: False

Problem: Next entry: Cc1cccc(-c2cc(O)c3ccc(C)nc3n2)c1
Solution: True

Problem: Next entry: O=C1NC2=NOC(=O)NC2=NO1
Solution: False

Problem: Next entry: Cc1ccc(O)cc1.Cc1cccc(O)c1.Cc1ccccc1O
Solution: False

Problem: Next entry: Cc1cc(S(=O)(=O)Nc2nnc3cnc4ccccc4n23)c(S)cc1Cl
Solution: False

Problem: Next entry: COc1ccc(C[C@@H]2OC3(C=CC(=O)C=C3)O[C@H]2Cc2ccc(OC)cc2)cc1
Solution: True

Problem: Next entry: COc1ccc(CNc2nc(NCc3ccc(OC)cc3)nc(N3CCOCC3)n2)cc1
Solution: False
